Cited source for all entries: paper PMC4701444

- target.system: T1, PfAMA1 (DI-DII of Plasmodium falciparum Apical Membrane Antigen 1, 3D7, residues 104-438) (Plasmodium falciparum, UniProt Q7KQK5 104-438)
- T1 construct: codon-optimized synthetic gene; also called native PfAMA1; PfAMA1 DI-DII construct
- T1 sequence: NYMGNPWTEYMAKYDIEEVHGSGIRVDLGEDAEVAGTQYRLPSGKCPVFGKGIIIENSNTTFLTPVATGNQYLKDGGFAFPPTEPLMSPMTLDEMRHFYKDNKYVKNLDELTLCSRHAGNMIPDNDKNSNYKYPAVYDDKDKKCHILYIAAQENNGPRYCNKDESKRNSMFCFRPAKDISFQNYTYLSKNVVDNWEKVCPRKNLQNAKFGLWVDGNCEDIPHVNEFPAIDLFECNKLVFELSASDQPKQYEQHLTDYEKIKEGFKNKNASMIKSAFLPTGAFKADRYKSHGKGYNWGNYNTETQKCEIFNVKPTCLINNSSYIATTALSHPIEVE
- assay.notes: fluorescence polarisation; anisotropy titration at 25°C; 10 nM F*PfRON2sp1 titrated with protein (0 to 10 μM); PBS pH 7.4, at least 0.1% BSA
- test.context: both partners purified
Bridge positions count the residues as written; N and C are the ends. Ends that are not written are not given here. * marks the point of attachment. 5FAM = O=C1OC2(c3ccc(O)cc3Oc3cc(O)ccc32)c2ccc(C(=O)*)cc21
readout.kind: Kd (nM)
Numbers only here, please. The scale is nM.

Q: Fill blank: measured Kd of the binder 5FAM-DITQQAKDIGAGPVASCFTTRMSPPQQICLNSVVNTALS (disulfide 17-29, Rhoptry Neck Protein 2 (RON2) of Plasmodium falciparum, residues 2021-2059; also called labeled peptide; labeled probe; source: synthetic peptide, bought: Kinexus (purity ≥ 95%)) [F*PfRON2sp1 (39 aa) [2021-2059], fluorescein-labeled PfRON2sp1 peptide] is ____.
Ans: 43
